System: HCC-44
Experiment: relative viability (nuclei count vs DMSO), 5 days (fraction); higher = more cells survive
Conditions: first compound 0.1265 µM
REPORTED METRIC: relative viability
Answers are plain numbers.

Challenge: Quick check: relative viability of O=C(O)c1ccc(-c2c[nH]c3ncc(-c4ccccc4)cc23)cc1C1CCCC1 + NC(=O)Nc1cc(-c2cccc(F)c2)sc1C(=O)N[C@H]1CCCNC1 [AZD7762] (partner 0.2 µM) ?
Response given: 1.03

Challenge: Can you look up the measured relative viability of O=C(O)c1ccc(-c2c[nH]c3ncc(-c4ccccc4)cc23)cc1C1CCCC1 + COc1cccc2cc(-c3nc([C@H]4CC[C@H](C(=O)O)CC4)n4ncnc(N)c34)[nH]c12 [OSI-027] (partner 0.5 µM) for me?
Response given: 0.505

Challenge: Please look up its relative viability: O=C(O)c1ccc(-c2c[nH]c3ncc(-c4ccccc4)cc23)cc1C1CCCC1 + Nc1nc2[nH]cc(CCc3ccc(C(=O)N[C@@H](CCC(=O)O)C(=O)O)cc3)c2c(=O)[nH]1 [Pemetrexed] (partner 0.2 µM)
Response given: 0.578

Continuing:
Challenge: Entry O=C(O)c1ccc(-c2c[nH]c3ncc(-c4ccccc4)cc23)cc1C1CCCC1 + C[C@@H](Oc1cc(-c2cnn(C3CCNCC3)c2)cnc1N)c1c(Cl)ccc(F)c1Cl [Crizotinib] (partner 1 µM) has what relative viability?
Response given: 0.823

###

Test system: EKVX
Experiment: relative viability (nuclei count vs DMSO), 5 days (fraction); higher = more cells survive
Settings: first compound 0.03162 µM
Please provide measured relative viability for the entries that follow.
One number for each entry.

Challenge: Suppose we examine the molecule NC(=O)Nc1cc(-c2cccc(F)c2)sc1C(=O)N[C@H]1CCCNC1 [AZD7762] + Cc1nc(NC(=O)N2CCC[C@H]2C(N)=O)sc1-c1ccnc(C(C)(C)C(F)(F)F)c1 [Alpelisib] (partner 2 µM) ; what relative viability value has been reported?
Response given: 0.845

# batch: return relative viability for each of the 2 molecules below
1. NC(=O)Nc1cc(-c2cccc(F)c2)sc1C(=O)N[C@H]1CCCNC1 [AZD7762] + Cc1nc(Nc2ncc(C(=O)Nc3c(C)cccc3Cl)s2)cc(N2CCN(CCO)CC2)n1 [Dasatinib] (partner 0.075 µM)
2. NC(=O)Nc1cc(-c2cccc(F)c2)sc1C(=O)N[C@H]1CCCNC1 [AZD7762] + C[C@]1(O)C[C@@H](c2nc(-c3ccc4ccc(-c5ccccc5)nc4c3)c3c(N)nccn32)C1 [Linsitinib] (partner 1 µM)

Response given:
[0.615, 0.971]

For each listed entry, give its relative viability.
1. NC(=O)Nc1cc(-c2cccc(F)c2)sc1C(=O)N[C@H]1CCCNC1 [AZD7762] + COc1cccc2cc(-c3nc([C@H]4CC[C@H](C(=O)O)CC4)n4ncnc(N)c34)[nH]c12 [OSI-027] (partner 0.5 µM)
2. NC(=O)Nc1cc(-c2cccc(F)c2)sc1C(=O)N[C@H]1CCCNC1 [AZD7762] + CCNC(=O)c1noc(-c2cc(C(C)C)c(O)cc2O)c1-c1ccc(CN2CCOCC2)cc1 [Luminespib] (partner 0.01 µM)
3. NC(=O)Nc1cc(-c2cccc(F)c2)sc1C(=O)N[C@H]1CCCNC1 [AZD7762] + O=C(CCCCCCC(=O)Nc1ccccc1)NO [Vorinostat] (partner 1 µM)
4. NC(=O)Nc1cc(-c2cccc(F)c2)sc1C(=O)N[C@H]1CCCNC1 [AZD7762] + CS(=O)(=O)N1CCN(Cc2cc3nc(-c4cccc5[nH]ncc45)nc(N4CCOCC4)c3s2)CC1 [Pictilisib] (partner 1 µM)
5. NC(=O)Nc1cc(-c2cccc(F)c2)sc1C(=O)N[C@H]1CCCNC1 [AZD7762] + CC1(C)CCC(c2ccc(Cl)cc2)=C(CN2CCN(c3ccc(C(=O)NS(=O)(=O)c4ccc(N[C@H](CCN5CCOCC5)CSc5ccccc5)c(S(=O)(=O)C(F)(F)F)c4)cc3)CC2)C1 [Navitoclax] (partner 0.5 µM)

Response given:
[0.75, 0.88, 0.758, 0.451, 0.863]
